# STUDY TARGET: cellular PARG (Homo sapiens)
# Construct: endogenous in cells
# EXPERIMENTAL PROTOCOL: Nuclear PAR accumulation assay (immunofluorescence high-content imaging, MMS-treated HeLa cells)
# EXPERIMENTAL CONTEXT: 1 hour compound then MMS 50 μg/mL for an additional hour

MOLECULE | IC50
C[C@@H]1CN=C2N(C)C(=O)c3cc(S(=O)(=O)NC4(C)CC4)cc(N4CCN(C(=O)N(C)C)CC4)c3N21 [Example 33] | < 100 nM
CN1C(=O)c2cc(S(=O)(=O)NC3(C)CC3)ccc2N2C1=NCC2C#Cc1cnsc1 (stereo not shown) [Example 179] | < 100 nM
C[C@@H]1CN(c2cc(S(=O)(=O)NC3(C)CC3)cc3c2N2C(=NC[C@H]2C)N(Cc2cnn(C)c2)C3=O)CCN1 [Example 78] | 100 to 1000 nM
[2H]C([2H])(c1cnn(C)c1)N1C(=O)c2cc(S(=O)(=O)NC3(C)CC3)ccc2N2C1=NC[C@H]2C#Cc1cncnc1NC [Example 263] | < 100 nM

----------
# STUDY TARGET: cellular PARG (Homo sapiens)
# Construct: endogenous in cells
# EXPERIMENTAL PROTOCOL: Nuclear PAR accumulation assay (immunofluorescence high-content imaging, MMS-treated HeLa cells)
# EXPERIMENTAL CONTEXT: 1 hour compound then MMS 50 μg/mL for an additional hour
pIC50: −log10 of the molar value.
This listing pairs compounds with measured pIC50.

STRUCTURE SMILES STRING | pIC50
CC(=O)NC[C@@H]1N=C2N(Cc3cnn(C)c3)C(=O)c3cc(S(=O)(=O)NC4(C)CC4)ccc3N2[C@@H]1C | 6.00 to 7.00
[2H]C([2H])(c1cnn(C)c1)N1C(=O)c2cc(S(=O)(=O)NC3(C)CC3)ccc2N2C1=NC[C@H]2C#Cc1cncnc1N | > 7.00
C[C@@H]1CN(c2cc(S(=O)(=O)NC3(C)CC3)cc3c2N2C(=NC[C@H]2C)N(Cc2cnn(C)c2)C3=O)C[C@@H](C)N1 | > 7.00
CN1C(=O)c2cc(S(=O)(=O)NC3(C)CC3)ccc2N2C1=NC[C@H]2C#Cc1ccc2cn(C)nc2c1 | > 7.00

----------
# STUDY TARGET: cellular PARG (Homo sapiens, UniProt Q86W56)
# Construct: endogenous in cells
# Sequence (Q86W56 whole entry): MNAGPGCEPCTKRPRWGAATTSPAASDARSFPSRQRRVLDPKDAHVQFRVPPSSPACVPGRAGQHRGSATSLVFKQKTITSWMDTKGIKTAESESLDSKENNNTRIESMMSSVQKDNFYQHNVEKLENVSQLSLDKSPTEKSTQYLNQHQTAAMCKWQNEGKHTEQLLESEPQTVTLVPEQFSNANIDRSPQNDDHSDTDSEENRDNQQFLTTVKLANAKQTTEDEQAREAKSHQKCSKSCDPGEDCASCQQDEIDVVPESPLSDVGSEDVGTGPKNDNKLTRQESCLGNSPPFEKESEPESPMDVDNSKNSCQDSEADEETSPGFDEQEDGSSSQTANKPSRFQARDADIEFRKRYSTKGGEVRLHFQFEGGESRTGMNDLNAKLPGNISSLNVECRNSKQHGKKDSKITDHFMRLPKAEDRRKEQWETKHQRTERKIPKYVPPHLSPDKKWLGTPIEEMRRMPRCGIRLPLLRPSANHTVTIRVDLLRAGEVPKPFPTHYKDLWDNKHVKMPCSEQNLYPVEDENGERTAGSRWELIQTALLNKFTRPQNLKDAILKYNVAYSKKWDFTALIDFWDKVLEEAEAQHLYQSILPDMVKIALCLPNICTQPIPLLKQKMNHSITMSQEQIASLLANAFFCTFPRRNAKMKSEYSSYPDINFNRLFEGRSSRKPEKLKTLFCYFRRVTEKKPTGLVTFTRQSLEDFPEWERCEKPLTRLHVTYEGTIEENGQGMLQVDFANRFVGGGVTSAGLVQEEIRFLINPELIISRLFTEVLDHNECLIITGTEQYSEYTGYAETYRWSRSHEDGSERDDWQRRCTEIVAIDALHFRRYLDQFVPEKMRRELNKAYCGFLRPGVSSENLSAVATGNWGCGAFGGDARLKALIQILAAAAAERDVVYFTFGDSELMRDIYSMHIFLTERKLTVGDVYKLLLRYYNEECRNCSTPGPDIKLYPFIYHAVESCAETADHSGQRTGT
# EXPERIMENTAL PROTOCOL: Nuclear PAR accumulation assay (immunofluorescence high-content imaging, MMS-treated HeLa cells)
# EXPERIMENTAL CONTEXT: 1 hour compound then MMS 50 μg/mL for an additional hour
This listing pairs compounds with measured IC50.

COMPOUND | IC50
CN1C(=O)c2cc(S(=O)(=O)NC3(C)CC3)c(F)cc2N2C1=NCC2C#Cc1cnc2cccnn12 (stereo not drawn) | < 100 nM
Cc1nn(C)cc1C#C[C@@H]1CN=C2N(CC3CC3)C(=O)c3cc(S(=O)(=O)NC4(C)CC4)ccc3N21 | < 100 nM
[2H]C([2H])(c1cnn(C)c1)N1C(=O)c2cc(S(=O)(=O)NC3(C)CC3)ccc2N2C1=NC[C@H]2C#Cc1cccnc1N | < 100 nM
C[C@@H]1CN=C2N(Cc3cccnc3CC#N)C(=O)c3cc(S(=O)(=O)NC4(C)CC4)ccc3N21 | 100 to 1000 nM
CN1C(=O)c2cc(S(=O)(=O)NC3(C)CC3)ccc2N2C1=NCC2C#Cc1ccc2cnn(C)c2c1 (stereo not drawn) | < 100 nM
CN1C(=O)c2cc(S(=O)(=O)NC3(C)CC3)ccc2N2C1=NC[C@H]2C#Cc1cn(C)nc1F | < 100 nM

----------
# STUDY TARGET: cellular PARG (Homo sapiens, UniProt Q86W56)
# Construct: endogenous in cells
# EXPERIMENTAL PROTOCOL: Nuclear PAR accumulation assay (immunofluorescence high-content imaging, MMS-treated HeLa cells)
# EXPERIMENTAL CONTEXT: 1 hour compound then MMS 50 μg/mL for an additional hour
# Procedure: HeLa cells were plated at 15,000 cells/well in a 96-well plate the day before compound treatment and then treated with varying concentrations of test compound and incubated for 1 hour at 37° C.+5% CO2. […] Nuclear PAR accumulation was evaluated using high-content fluorescence microscopy. Four fields for each well were acquired at 20× magnification resulting in at least 1,000 cells analyzed per well. […] Both the average intensity per nucleus and percent PAR positive cells were quantified. […]
pIC50: −log10 of the molar value.
RECORDED ENDPOINT: pIC50

COMPOUND | RECORDED ENDPOINT | RECORDED MEASUREMENT
Cn1cc(CN2C(=O)c3cc(S(=O)(=O)NC4(C)CC4)ccc3N3C2=NC[C@H]3COc2cccc(F)c2)cn1 | pIC50 | > 7.00
[2H]C([2H])(c1cnn(C)c1)N1C(=O)c2cc(S(=O)(=O)NC3(C)CC3)ccc2N2C1=NCC2CNc1ccccn1 (centres unmarked) | pIC50 | 5.00 to 6.00
CN1C(=O)c2cc(S(=O)(=O)NC3(C)CC3)ccc2N2C1=NCC2C#Cc1cnn(C)c(=O)c1 (centres unmarked) | pIC50 | > 7.00
CN(C)C(=O)N1CCN(c2cc(S(=O)(=O)NC3(C)CC3)cc3c2N2CC(C)(C)N=C2N(C)C3=O)CC1 | pIC50 | > 7.00
Cn1cc(CN2C(=O)c3cc(S(=O)(=O)NC4(C)CC4)ccc3N3C2=NCC3COc2ccc(Cl)cc2)cn1 (centres unmarked) | pIC50 | 6.00 to 7.00
COc1ccc(C#CC2CN=C3N(C)C(=O)c4cc(S(=O)(=O)NC5(C)CC5)ccc4N32)cn1 (centres unmarked) | pIC50 | > 7.00
CN1C(=O)c2cc(S(=O)(=O)NC3(C)CC3)ccc2N2C1=NCC2C#Cc1ccn(C)c(=O)c1 (centres unmarked) | pIC50 | 6.00 to 7.00
Cn1cc(CN2C(=O)c3cc(S(=O)(=O)NC4(C)CC4)ccc3N3C2=NC[C@H]3C#Cc2cnccn2)cn1 | pIC50 | > 7.00
Cn1cc(CN2C(=O)c3cc(S(=O)(=O)NC4(C)CC4)ccc3N3C2=NC[C@H]3/C=C/c2ccccc2)cn1 | pIC50 | > 7.00
CN1C(=O)c2cc(S(=O)(=O)NC3(C)CC3)ccc2N2C1=NCC2C#Cc1ccc2nnn(C)c2c1 (centres unmarked) | pIC50 | > 7.00
CCN(CC)CC#C[C@@H]1CN=C2N(Cc3cnn(C)c3)C(=O)c3cc(S(=O)(=O)NC4(C)CC4)ccc3N21 | pIC50 | > 7.00
Cc1ncc([C@@H]2CN=C3N(Cc4cnn(C)c4)C(=O)c4cc(S(=O)(=O)NC5(C)CC5)ccc4N32)s1 | pIC50 | > 7.00
C[C@@H]1CN=C2N(Cc3ccnc(C#N)c3)C(=O)c3cc(S(=O)(=O)NC4(C)CC4)ccc3N21 | pIC50 | 6.00 to 7.00
Cn1cc(C#C[C@H]2CN=C3N(Cc4cnn(C)c4)C(=O)c4cc(S(=O)(=O)NC5(C)CC5)ccc4N32)cn1 | pIC50 | 6.00 to 7.00
Cn1cc(CN2C(=O)c3cc(S(=O)(=O)NC4(C)CC4)ccc3N3C2=NCC3COc2ccccc2F)cn1 (centres unmarked) | pIC50 | > 7.00
CN1C(=O)c2cc(S(=O)(=O)NC3(C)CC3)ccc2N2C1=NC[C@H]2C#Cc1cnc2ncccn12 | pIC50 | 6.00 to 7.00
C[C@@H]1CN=C2N(Cc3cnn(C)c3)C(=O)c3cc(S(=O)(=O)NC4(C)CC4)cc(N4CCN[C@@H](C)C4)c3N21 | pIC50 | 5.00 to 6.00
[2H]C([2H])(c1cnn(C)c1)N1C(=O)c2cc(S(=O)(=O)NC3(C)CC3)c(F)cc2N2C1=NC[C@H]2C#C | pIC50 | > 7.00
Cn1cc(CN2C(=O)c3cc(S(=O)(=O)NC4(C)CC4)cc(Br)c3N3CC(C)(C)N=C23)cn1 | pIC50 | 6.00 to 7.00
[2H]C([2H])(c1cnn(C)c1)N1C(=O)c2cc(S(=O)(=O)NC3(C)CC3)ccc2N2C1=NC[C@H]2C#CC1=CCNCC1 | pIC50 | > 7.00
C[C@@H]1CN=C2N(Cc3cnn(C)c3)C(=O)c3cc(S(=O)(=O)NC4(C)CC4)cc(N4CCN(C)CC4)c3N21 | pIC50 | > 7.00
[2H]C([2H])(c1cnn(C)c1)N1C(=O)c2cc(S(=O)(=O)NC3(CO)CC3)ccc2N2C1=NC[C@H]2C | pIC50 | 5.00 to 6.00
CN1C(=O)c2cc(S(=O)(=O)NC3(C)CC3)ccc2N2C1=NC[C@H]2C#Cc1ccnn1C | pIC50 | > 7.00
CCN1C(=O)c2cc(S(=O)(=O)NC3(C)CC3)ccc2N2C1=NC[C@H]2C#CC1CC1 | pIC50 | > 7.00
[2H]C([2H])(c1cnn(C)c1)N1C(=O)c2cc(S(=O)(=O)NC3(C)CC3)ccc2N2C1=NC[C@H]2COc1ccccn1 | pIC50 | > 7.00
Cc1cc(C#C[C@@H]2CN=C3N(Cc4cnn(C)c4)C(=O)c4cc(S(=O)(=O)NC5(C)CC5)ccc4N32)n(C)n1 | pIC50 | > 7.00
